Attribution: ChEMBL document CHEMBL3600384

# System: CCRF-CEM
# method-description: Resistance index, ratio of IC50 for human CEM/ADR5000 cells to IC50 for human CCRF-CEM cells
# Assay type: functional
parameter: Ratio IC50
Just the number.

Query Ratio IC50 on CCRF-CEM for C[C@H]1[C@H](OC(=O)CCC(=O)O)O[C@@H]2O[C@@]3(C)CC[C@H]4[C@H](C)CC[C@@H]1[C@@]24OO3 [ARTESUNATE]
2.71

Query Ratio IC50 on CCRF-CEM for C[C@H]1[C@H](OC(=O)CCC(=O)O[C@@H]2O[C@@H]3O[C@@]4(C)CC[C@H]5[C@H](C)CC[C@@H]([C@H]2C)[C@@]35OO4)O[C@@H]2O[C@@]3(C)CC[C@H]4[C@H](C)CC[C@@H]1[C@@]24OO3
1.01

Query Ratio IC50 on CCRF-CEM for COc1cccc2c1C(=O)c1c(O)c3c(c(O)c1C2=O)C[C@@](O)(C(=O)CO)C[C@@H]3O[C@H]1C[C@H](N)[C@H](O)[C@H](C)O1 [DOXORUBICIN]
536.67

Query Ratio IC50 on CCRF-CEM for C[C@@H]1CC[C@H]2[C@@H](C)C(=O)O[C@@H]3O[C@@]4(C)CC[C@@H]1[C@]32OO4 [ARTEMISININ]
0.73

Query Ratio IC50 on CCRF-CEM for C[C@H]1[C@@H](CCCOC(=O)C[C@H]2O[C@@H]3O[C@@]4(C)CC[C@H]5[C@H](C)CC[C@@H]([C@H]2C)[C@@]35OO4)O[C@@H]2O[C@@]3(C)CC[C@H]4[C@H](C)CC[C@@H]1[C@@]24OO3
2.22
